study.system: Tau
method.description: rat primary cortical neurons, FLIPR, 25 uM ASO
Bases are written 5' to 3'; sugars and linkages follow in the same order, as letters with counts (s phosphorothioate, o phosphodiester; PS: all linkages phosphorothioate). The collection does not say whether C is 5-methylated. l = locked nucleic acid (LNA); d = 2'-deoxy (DNA)
calcium oscillation score: recorded values
measurement.name: calcium oscillation score

* TACCCATCTTAATTCATTTA (sugars l3 d14 l3, PS) | 111 % of control
* CTTTTCCCAATTATTAAC (sugars l4 d10 l4, PS) | 60.1 % of control
* TCCAGCTACTTACCCAA (sugars l2 d12 l3, PS) | 89 % of control
* TAATTAGAAACCTCCT (sugars l4 d8 l4, PS) | 73.3 % of control
* TTTATTTCCAAATTCACTTT (sugars l1 d17 l2, PS) | 163 % of control
* CTTTTAATTAAATTTCTCCC (sugars l2 d15 l3, PS) | 87.6 % of control
* TCCACTTAGACACTCTT (sugars l2 d11 l4, PS) | 50 % of control
* TCAGCTAAGACCCTCAGGTT (sugars l3 d14 l3, PS) | 33 % of control
* CTAGCCCACCCATCAATTTG (sugars l3 d14 l3, PS) | 0 % of control
* ATTTCCAAATTCACTTTTAC (sugars lldlldddddddddldldll, PS) | 83 % of control
* TTTTTCTCTCTTAACTTT (sugars l4 d10 l4, PS) | 94.5 % of control
* GCATCAGAGGTTTCAG (sugars l3 d10 l3, PS) | 0 % of control
* ACATCTCTCTAGACAT (sugars l4 d9 l3, PS) | 59.5 % of control
* AATTTATTAATTCATAAATG (sugars l3 d14 l3, PS) | 38.3 % of control

---

study.system: Tau
method.description: rat primary cortical neurons, FLIPR, 25 uM ASO
Bases are written 5' to 3'; sugars and linkages follow in the same order, as letters with counts (s phosphorothioate, o phosphodiester; PS: all linkages phosphorothioate). The collection does not say whether C is 5-methylated. l = locked nucleic acid (LNA); d = 2'-deoxy (DNA)
measurement.name: calcium oscillation score

* CGGTAGGAAAGACATTTCCC (sugars l3 d14 l3, PS) | 10.1 % of control
* CCAGACCATCAATTTCC (sugars l2 d13 l2, PS) | 83.3 % of control
* CACCTTTTCATGTTAAA (sugars l4 d9 l4, PS) | 97.5 % of control
* AGTCCCGAGCCAAAG (sugars l3 d9 l3, PS) | 36.6 % of control
* CGCACCAGGAACCTTCCAGA (sugars l3 d14 l3, PS) | 28.2 % of control
* AATCCTGTGCTTCA (sugars l3 d8 l3, PS) | 9.58 % of control

---

study.system: Tau
method.description: rat primary cortical neurons, FLIPR, 25 uM ASO
Bases are written 5' to 3'; sugars and linkages follow in the same order, as letters with counts (s phosphorothioate, o phosphodiester; PS: all linkages phosphorothioate). The collection does not say whether C is 5-methylated. l = locked nucleic acid (LNA); d = 2'-deoxy (DNA)
measurement.name: calcium oscillation score

- GGCGGTGACTGCGA (sugars l3 d8 l3, PS): 41.7 % of control
- CCCACCAAAGACTTCA (sugars l2 d11 l3, PS): 58.3 % of control
- GTCTTCACATCCCAACT (sugars l4 d11 l2, PS): 82.1 % of control
- CCCAGCGTGATCTT (sugars l3 d8 l3, PS): 46 % of control
- GGAGGCAGACACCTCGTCAG (sugars l3 d14 l3, PS): 51.8 % of control
- ATTAATTATCTGCACCT (sugars l4 d10 l3, PS): 24.7 % of control
- CTCAAACTTAAATTTATTTT (sugars l4 d12 l4, PS): 90.7 % of control
- CTGAAAGAGGGCAGCA (sugars l3 d10 l3, PS): 36.8 % of control

---

study.system: Tau
method.description: rat primary cortical neurons, FLIPR, 25 uM ASO
Bases are written 5' to 3'; sugars and linkages follow in the same order, as letters with counts (s phosphorothioate, o phosphodiester; PS: all linkages phosphorothioate). The collection does not say whether C is 5-methylated. l = locked nucleic acid (LNA); d = 2'-deoxy (DNA)
measurement.name: calcium oscillation score

• AAGACCAAGCAGAGATAAAC (sugars l3 d14 l3, PS) = 16.7 % of control
• ACATCTAAACACCTCAATCC (sugars l2 d15 l3, PS) = 73.2 % of control
• ACTTTATTTCCAAATTCACTTTTAC (sugars l1 d19 l5, PS) = 86.5 % of control
• TTATTTCCAAATTCACTTTT (sugars lldldlddddddddddllll, PS) = 88.8 % of control
• GGTCTGGCATGGGC (sugars l3 d8 l3, PS) = 0 % of control
• TGACCTCAACTCTACC (sugars l4 d10 l2, PS) = 68.5 % of control
• GTGGCGGTGACTGCGA (sugars l3 d10 l3, PS) = 62.6 % of control
• GGTTTGTAGACTATTTGCAC (sugars l3 d14 l3, PS) = 0 % of control
• CCCCTCCATTAAGAAC (sugars l3 d11 l2, PS) = 68.1 % of control
• GCGACTTGTACACGATCTCC (sugars l3 d14 l3, PS) = 7.77 % of control

---

study.system: Tau
method.description: rat primary cortical neurons, FLIPR, 25 uM ASO
Bases are written 5' to 3'; sugars and linkages follow in the same order, as letters with counts (s phosphorothioate, o phosphodiester; PS: all linkages phosphorothioate). The collection does not say whether C is 5-methylated. l = locked nucleic acid (LNA); d = 2'-deoxy (DNA)
measurement.name: calcium oscillation score

* CATCTAAACACCTCAATCCA (sugars l2 d16 l2, PS) | 72.6 % of control
* AACTGGTTAGCCCTAA (sugars l3 d10 l3, PS) | 31.3 % of control
* GCTTTTCCCAATTATTA (sugars l4 d11 l2, PS) | 62 % of control
* AATCCTGTGCTTCAGG (sugars l3 d10 l3, PS) | 73 % of control
* AATTTACACCCAAACCTA (sugars l2 d12 l4, PS) | 81.9 % of control
* ATATTGAACTCACCCAC (sugars l2 d11 l4, PS) | 54.3 % of control
* GCTGAGGTGCTCTGGT (sugars l3 d10 l3, PS) | 19.2 % of control
* TAGCAAACAGGATACA (sugars l3 d10 l3, PS) | 49.8 % of control
* TTATTAATTATCTGCA (sugars l3 d10 l3, PS) | 58.7 % of control
* TTGGAAAGATGAAATTTGCT (sugars l3 d14 l3, PS) | 1.45 % of control
* GCTAAGGCAAGGCCTA (sugars l3 d10 l3, PS) | 129 % of control
* ATCACTTCGAACTCCT (sugars l3 d10 l3, PS) | 159 % of control
* TCCTGGTTTATGATGGATGT (sugars l3 d14 l3, PS) | 5.81 % of control
* GCAGGCGCGAGCAGCG (sugars l3 d10 l3, PS) | 23.5 % of control
* TGCTTACACACCACACAC (sugars l2 d13 l3, PS) | 60.7 % of control
* TATTGTCCAGGGACCCAATC (sugars l3 d14 l3, PS) | 33.2 % of control
* AGTCCCGTCTTTGC (sugars l3 d8 l3, PS) | 2.61 % of control
* TTCCCTTAATTTCACC (sugars l3 d10 l3, PS) | 127 % of control
* CTTAGTCATCTTCCCTC (sugars l2 d13 l2, PS) | 92.4 % of control
* TTAGACTCCTTCTTTAGGCT (sugars l3 d14 l3, PS) | 26.2 % of control
* AGCAGAGGAACGTGTG (sugars l3 d10 l3, PS) | 11.1 % of control
* CCCTTGATCATATTTGTGGC (sugars l3 d14 l3, PS) | 35.7 % of control
* TTACCCTTAAATATGC (sugars l4 d8 l4, PS) | 73.3 % of control
* GTTAGCCCTAAAGTCCCAGG (sugars l3 d14 l3, PS) | 27.9 % of control
* CTTTCCTAATTCCCAAATTC (sugars l3 d15 l2, PS) | 60.9 % of control
* AAACTCATTTACCAATTATC (sugars l4 d12 l4, PS) | 56.8 % of control
* TTGTAGACTATTTGCACACT (sugars l3 d14 l3, PS) | 40.7 % of control
* CCTTAATTTCACCCT (sugars l3 d9 l3, PS) | 140 % of control
* GCATGATTGTGGGCTT (sugars l3 d10 l3, PS) | 47.4 % of control
* GAACTGCGAGGAGCAG (sugars l3 d10 l3, PS) | 85.2 % of control
* TCCAAACTTTTACTCTG (sugars l3 d10 l4, PS) | 31.2 % of control
* TCCCATCACTAGCACTA (sugars l2 d13 l2, PS) | 32.8 % of control
